- System: human maximum recommended daily dose, FDA database
- Measurement protocol: DSSTox (FDAMDD) FDA Maximum (Recommended) Daily Dose Database
- Run parameters: TherapeuticCategory: immunosuppressant; antirheumatic; hits give low values
Measurement name: maximum recommended daily dose (mmol/kg-bw/day)

Structure smiles string: Cn1cnc([N+](=O)[O-])c1Sc1ncnc2nc[nH]c12
Tested on: human maximum recommended daily dose, FDA database
Measured number: 0.018

----------
- System: human maximum recommended daily dose, FDA database
- Measurement protocol: DSSTox (FDAMDD) FDA Maximum (Recommended) Daily Dose Database
- Run parameters: TherapeuticCategory: anthelmintic; hits give low values
Listing of recorded maximum recommended daily dose (mmol/kg-bw/day) by entry.
Measurement name: maximum recommended daily dose (mmol/kg-bw/day)

Molecule: CCN1/C(=C/C=C/C=C/c2sc3ccccc3[n+]2CC)Sc2ccccc21
Tested on: human maximum recommended daily dose, FDA database
Measured number: 0.00642
//
Molecule: C1CNCCN1
Tested on: human maximum recommended daily dose, FDA database
Measured number: 0.774
//
Molecule: CN1CCCN=C1/C=C/c1cccs1
Tested on: human maximum recommended daily dose, FDA database
Measured number: 0.0969
//
Molecule: Oc1ccc(Cl)cc1Cc1cc(Cl)ccc1O
Tested on: human maximum recommended daily dose, FDA database
Measured number: 0.372
//
Molecule: CCCSc1ccc2nc(NC(=O)OC)[nH]c2c1
Tested on: human maximum recommended daily dose, FDA database
Measured number: 0.0501
//
Molecule: COC(=O)Nc1nc2ccc(C(=O)c3ccc(F)cc3)cc2[nH]1
Tested on: human maximum recommended daily dose, FDA database
Measured number: 0.00533
//
Molecule: CO[C@H]1C[C@H](O[C@H]2[C@H](C)O[C@@H](O[C@@H]3/C(C)=C/C[C@@H]4C[C@@H](C[C@]5(CC[C@H](C)[C@@H](C(C)C)O5)O4)OC(=O)[C@@H]4C=C(C)[C@@H](O)[C@H]5OC/C(=C\C=C\[C@@H]3C)[C@]54O)C[C@@H]2OC)O[C@@H](C)[C@@H]1O
Tested on: human maximum recommended daily dose, FDA database
Measured number: 0.000174
//
Molecule: COC(=O)C1=CCCN(C)C1
Tested on: human maximum recommended daily dose, FDA database
Measured number: 0.000215
//
Molecule: CC(C)NCC1CCc2cc(CO)c([N+](=O)[O-])cc2N1 (stereo not given)
Tested on: human maximum recommended daily dose, FDA database
Measured number: 0.215
//
Molecule: CCN(CC)C(=O)N1CCN(C)CC1
Tested on: human maximum recommended daily dose, FDA database
Measured number: 0.0301
